ASSAY SYSTEM: B-Raf (Homo sapiens, UniProt P15056)
Sequence (P15056 whole entry): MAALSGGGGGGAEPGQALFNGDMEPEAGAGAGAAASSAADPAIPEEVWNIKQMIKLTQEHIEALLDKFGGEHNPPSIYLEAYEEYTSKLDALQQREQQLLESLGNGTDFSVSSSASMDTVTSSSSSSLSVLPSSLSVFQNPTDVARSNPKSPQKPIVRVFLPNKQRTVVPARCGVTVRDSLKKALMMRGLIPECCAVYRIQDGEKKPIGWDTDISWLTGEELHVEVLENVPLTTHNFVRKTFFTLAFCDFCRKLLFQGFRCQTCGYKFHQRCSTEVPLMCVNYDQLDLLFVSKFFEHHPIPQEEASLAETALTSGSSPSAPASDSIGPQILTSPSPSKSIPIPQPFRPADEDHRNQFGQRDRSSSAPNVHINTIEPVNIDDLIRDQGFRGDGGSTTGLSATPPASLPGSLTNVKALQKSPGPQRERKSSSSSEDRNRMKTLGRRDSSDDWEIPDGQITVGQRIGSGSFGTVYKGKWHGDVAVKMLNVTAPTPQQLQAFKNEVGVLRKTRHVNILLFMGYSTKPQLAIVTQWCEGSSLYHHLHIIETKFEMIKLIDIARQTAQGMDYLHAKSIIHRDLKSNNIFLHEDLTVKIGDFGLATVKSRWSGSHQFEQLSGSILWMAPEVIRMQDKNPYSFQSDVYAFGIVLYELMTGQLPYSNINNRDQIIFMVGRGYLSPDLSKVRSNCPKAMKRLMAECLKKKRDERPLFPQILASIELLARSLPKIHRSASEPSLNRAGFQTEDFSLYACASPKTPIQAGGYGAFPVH
PROTOCOL NOTES: Luciferase-coupled chemiluminescence kinase assay (ATP consumption), B-Raf
Type: biochemical
CONDITION CONTEXT: read-out: bRaf (inhibition indicated as IC50)
VALUE TYPE: IC50

## Input Check the records and state IC50 for COC(=O)Nc1nc2cc(C3(O)c4ccccc4C(=O)N3c3cccc(N(C)C4CCCCC4)c3)ccc2[nH]1 (stereo not drawn)
## Output < 100 nM

## Input Check the records and state IC50 for CC(C)(CN1CCCCC1)C(=O)Nc1nc2ccc(C3(O)c4ccccc4C(=O)N3Cc3ccccc3)cc2[nH]1 (stereo not drawn)
## Output 1000 to 10000 nM

## Input Check the records and state IC50 for O=C(Nc1nc2ccc(C3(O)c4ccccc4C(=O)N3c3cccc(Cl)c3F)cc2[nH]1)OCCN1CCOCC1 (stereo not drawn)
## Output < 100 nM

## Input Check the records and state IC50 for "COC(=O)Nc1nc2ccc(C(=O)c3ccccc3NC(=O)c3ccccc3)cc2[nH]1"
## Output 1000 to 10000 nM

## Input Check the records and state IC50 for O=C(CCCN1CCCCC1)Nc1nc2cc(C3(O)c4ccccc4C(=O)N3c3cccc(Oc4ccccc4)c3)ccc2[nH]1 (stereo not drawn)
## Output < 100 nM

## Input Check the records and state IC50 for COC(=O)Nc1nc2cc(C3(O)c4ccccc4C(=O)N3c3cc(C)ccc3OC)ccc2[nH]1 (stereo not drawn)
## Output < 100 nM

## Input Check the records and state IC50 for "COC(=O)Nc1nc2ccc(C(=O)c3ccccc3C(=O)Nc3ccc(F)c(Cl)c3)cc2[nH]1"
## Output < 100 nM

## Input Check the records and state IC50 for CC(=O)N1CCC(C(=O)Nc2nc3cc(C4(O)c5ccccc5C(=O)N4c4cccc(Cl)c4F)ccc3[nH]2)CC1 (stereo not drawn)
## Output < 100 nM

## Input Check the records and state IC50 for COC(=O)Nc1nc2ccc(C3(O)c4c(F)ccc(F)c4C(=O)N3c3cc(Cl)ccc3C)cc2[nH]1 (stereo not drawn)
## Output < 100 nM

## Input Check the records and state IC50 for O=C(Cc1cccs1)Nc1nc2cc(C3(O)c4ccccc4C(=O)N3c3cccc(Cl)c3F)ccc2[nH]1 (stereo not drawn)
## Output < 100 nM

## Input Check the records and state IC50 for COC(=O)C(=O)Nc1nc2ccc(C3(O)c4ccccc4C(=O)N3c3cccc(Cl)c3F)cc2[nH]1 (stereo not drawn)
## Output 1000 to 10000 nM

## Input Check the records and state IC50 for O=C(Nc1nc2ccc(C3(O)c4ccccc4C(=O)N3c3cccc(Cl)c3F)cc2[nH]1)C1CC1(F)F (stereo not drawn)
## Output < 100 nM

## Input Check the records and state IC50 for "COC(=O)Nc1nc2ccc(C(=O)c3ccccc3C(=O)Nc3cccc(C)c3)cc2[nH]1"
## Output < 100 nM

## Input Check the records and state IC50 for CN1CCCC(COC(=O)Nc2nc3ccc(C4(O)c5ccccc5C(=O)N4c4cccc(Cl)c4F)cc3[nH]2)C1 (stereo not drawn)
## Output < 100 nM

## Input Check the records and state IC50 for CCc1cccc(N2C(=O)c3ccccc3C2(O)c2ccc3[nH]c(NC(=O)OC)nc3c2)c1F (stereo not drawn)
## Output < 100 nM

====

ASSAY SYSTEM: UniProtKB P15056
PROTOCOL NOTES: Luciferase-coupled chemiluminescence kinase assay (ATP consumption), B-Raf
Type: biochemical
CONDITION CONTEXT: read-out: bRaf IC50
Provide the reported IC50 of each item.

## Input State, for UniProtKB P15056, measured IC50 of the compound listed here: O=C(CCCN1CCCCC1)Nc1nc2cc(C3(O)c4ccccc4C(=O)N3Cc3ccccc3)ccc2[nH]1 (stereo not shown)
## Output < 100 nM

## Input State, for UniProtKB P15056, measured IC50 of the compound listed here: COC(=O)Nc1nc2cc(C3(O)c4ccccc4C(=O)N3c3ccc(Cl)c(C)c3)ccc2[nH]1 (stereo not shown)
## Output < 100 nM

## Input State, for UniProtKB P15056, measured IC50 of the compound listed here: COCCOC(=O)Nc1nc2cc(C3(O)c4ccccc4C(=O)N3Cc3ccccc3)ccc2[nH]1 (stereo not shown)
## Output < 100 nM

## Input State, for UniProtKB P15056, measured IC50 of the compound listed here: CC#CCOC(=O)Nc1nc2cc(C3(O)c4ccccc4C(=O)N3[C@H](C)c3ccccc3)ccc2[nH]1 (stereo partly shown)
## Output < 100 nM

## Input State, for UniProtKB P15056, measured IC50 of the compound listed here: COC(=O)Nc1nc2cc(C3(O)c4ccccc4C(=O)N3c3cccc(S(C)(=O)=O)c3)ccc2[nH]1 (stereo not shown)
## Output 100 to 1000 nM

## Input State, for UniProtKB P15056, measured IC50 of the compound listed here: COC(=O)Nc1nc2cc(C3(O)c4ccccc4C(=O)N3CC3CCCC3)ccc2[nH]1 (stereo not shown)
## Output < 100 nM

## Input State, for UniProtKB P15056, measured IC50 of the compound listed here: O=C1COc2ccc(C3(O)c4ccccc4C(=O)N3c3cccc(Br)c3)cc2N1 (stereo not shown)
## Output 100 to 1000 nM

## Input State, for UniProtKB P15056, measured IC50 of the compound listed here: O=C1COc2ccc(C3(O)c4ccccc4C(=O)N3c3cc(F)cc(F)c3)cc2N1 (stereo not shown)
## Output 1000 to 10000 nM

## Input State, for UniProtKB P15056, measured IC50 of the compound listed here: COC(=O)Nc1nc2cc(C3(O)c4ccccc4C(=O)N3Cc3cccnc3)ccc2[nH]1 (stereo not shown)
## Output 100 to 1000 nM

## Input State, for UniProtKB P15056, measured IC50 of the compound listed here: O=C1COc2ccc(C3(O)c4ccccc4C(=O)N3Cc3cccc([N+](=O)[O-])c3)cc2N1 (stereo not shown)
## Output 1000 to 10000 nM

## Input State, for UniProtKB P15056, measured IC50 of the compound listed here: "O=C1COc2ccc(C(=O)c3ccccc3-c3nc(-c4ccccc4)no3)cc2N1"
## Output ≥ 10000 nM

## Input State, for UniProtKB P15056, measured IC50 of the compound listed here: COC(=O)Nc1nc2cc(C3(O)c4ccccc4C(=O)N3c3cccc(OC(F)(F)C(F)F)c3)ccc2[nH]1 (stereo not shown)
## Output 1000 to 10000 nM

## Input State, for UniProtKB P15056, measured IC50 of the compound listed here: COC(=O)Nc1nc2cc(C3(O)c4ccccc4C(=O)N3c3ccccc3C)ccc2[nH]1 (stereo not shown)
## Output < 100 nM

## Input State, for UniProtKB P15056, measured IC50 of the compound listed here: CCNC(=O)Nc1nc2ccc(C3(O)c4ccccc4C(=O)N3c3ccc(F)cc3)cc2[nH]1 (stereo not shown)
## Output < 100 nM

## Input State, for UniProtKB P15056, measured IC50 of the compound listed here: COC(=O)Nc1nc2cc(C3(O)c4ccccc4C(=O)N3c3ccc(F)c(Cl)c3)ccc2[nH]1 (stereo not shown)
## Output < 100 nM

## Input State, for UniProtKB P15056, measured IC50 of the compound listed here: COC(=O)Nc1nc2cc(C3(O)c4ccccc4C(=O)N3CC3CC3)ccc2[nH]1 (stereo not shown)
## Output 100 to 1000 nM

====

Provide the reported IC50 of each item.
ASSAY SYSTEM: c-Raf (Homo sapiens, UniProt P04049)
Sequence (P04049 whole entry): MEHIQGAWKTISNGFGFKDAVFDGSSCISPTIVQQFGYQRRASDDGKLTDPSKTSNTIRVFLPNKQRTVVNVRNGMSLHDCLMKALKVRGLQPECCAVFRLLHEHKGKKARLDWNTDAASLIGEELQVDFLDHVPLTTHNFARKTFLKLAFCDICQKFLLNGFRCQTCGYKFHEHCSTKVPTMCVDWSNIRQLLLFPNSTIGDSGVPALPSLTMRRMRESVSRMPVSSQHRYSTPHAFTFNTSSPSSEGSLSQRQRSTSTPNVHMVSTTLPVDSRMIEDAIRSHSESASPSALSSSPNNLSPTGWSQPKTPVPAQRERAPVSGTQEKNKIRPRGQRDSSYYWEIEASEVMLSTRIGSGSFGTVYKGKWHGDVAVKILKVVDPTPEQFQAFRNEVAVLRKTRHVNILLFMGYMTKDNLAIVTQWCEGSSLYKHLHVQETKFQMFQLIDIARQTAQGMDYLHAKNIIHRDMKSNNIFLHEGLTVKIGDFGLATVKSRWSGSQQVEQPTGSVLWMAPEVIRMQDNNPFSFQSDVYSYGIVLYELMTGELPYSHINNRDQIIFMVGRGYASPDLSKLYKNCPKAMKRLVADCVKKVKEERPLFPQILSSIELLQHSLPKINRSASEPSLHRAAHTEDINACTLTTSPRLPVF
PROTOCOL NOTES: Luciferase-coupled chemiluminescence kinase assay (ATP consumption), c-Raf
Type: biochemical
CONDITION CONTEXT: read-out: cRaf-1 IC50
Method: Tyrosine kinase activity is determined by 1) measurement of kinase-dependent ATP consumption by in the presence of a generic substrate such as […], tyrosine (pEY), by luciferase/luciferin-mediated chemiluminescence or; 2) incorporation of radioactive phosphate derived from ^33P-ATP into a generic substrate which has been adsorbed onto the well surface of polystyrene microtiter plates. Phosphorylated substrate products are quantified by scintillation spectrometry. […]

## Input Check the records and state IC50 for Nc1ccccc1N1C(=O)c2ccccc2C1(O)c1ccc2c(c1)NC(=O)CO2 (centres unmarked)
## Output 100 to 1000 nM

## Input Check the records and state IC50 for CC(C)(COCc1ccccc1)COC(=O)Nc1nc2cc(C3(O)c4ccccc4C(=O)N3Cc3ccccc3)ccc2[nH]1 (centres unmarked)
## Output < 100 nM

## Input Check the records and state IC50 for O=C(Nc1nc2cc(C3(O)c4ccccc4C(=O)N3Cc3ccccc3)ccc2[nH]1)OCC(F)(F)F (centres unmarked)
## Output < 100 nM

## Input Check the records and state IC50 for COC(=O)Nc1nc2cc(C3(O)c4ccccc4C(=O)N3Cc3ccccc3Cl)ccc2[nH]1 (centres unmarked)
## Output < 100 nM

## Input Check the records and state IC50 for COC(=O)Nc1nc2cc(C3(O)c4ccccc4C(=O)N3c3ccc(C)cc3)ccc2[nH]1 (centres unmarked)
## Output 100 to 1000 nM

## Input Check the records and state IC50 for COC(=O)Nc1nc2cc(C3(O)c4ccccc4C(=O)N3c3cc(C)cc(C)c3)ccc2[nH]1 (centres unmarked)
## Output < 100 nM

## Input Check the records and state IC50 for COC(=O)Nc1nc2cc(C3(O)c4ccccc4C(=O)N3c3cccc(C)c3C)ccc2[nH]1 (centres unmarked)
## Output < 100 nM

## Input Check the records and state IC50 for C#Cc1cccc(N2C(=O)c3ccccc3C2(O)c2ccc3[nH]c(NC(=O)OC)nc3c2)c1 (centres unmarked)
## Output < 100 nM

## Input Check the records and state IC50 for O=C1COc2ccc(C3(O)c4ccccc4C(=O)N3Cc3ccccc3Cl)cc2N1 (centres unmarked)
## Output 1000 to 10000 nM

## Input Check the records and state IC50 for COC(=O)Nc1nc2cc(C3(O)c4ccccc4C(=O)N3C(C)c3cccc(Cl)c3)ccc2[nH]1 (centres unmarked)
## Output 100 to 1000 nM

## Input Check the records and state IC50 for O=C1COc2ccc(C3(O)c4ccccc4C(=O)N3c3cccc(C(F)(F)F)c3)cc2N1 (centres unmarked)
## Output 100 to 1000 nM

## Input Check the records and state IC50 for COC(=O)Nc1nc2cc(C3(O)c4ccccc4C(=O)N3C(C)c3cccc(C(F)(F)F)c3)ccc2[nH]1 (centres unmarked)
## Output 1000 to 10000 nM

## Input Check the records and state IC50 for COC(=O)Nc1nc2cc(C3(O)c4ccccc4C(=O)N3c3cccc(C(N)=O)c3)ccc2[nH]1 (centres unmarked)
## Output 100 to 1000 nM

## Input Check the records and state IC50 for Nc1cccc(N2C(=O)c3ccccc3C2(O)c2ccc3c(c2)NC(=O)CO3)c1 (centres unmarked)
## Output 100 to 1000 nM

## Input Check the records and state IC50 for COC(=O)Nc1nc2cc(C3(O)c4ccccc4C(=O)N3c3cc(F)ccc3F)ccc2[nH]1 (centres unmarked)
## Output < 100 nM

## Input Check the records and state IC50 for COC(=O)Nc1nc2cc(C3(O)c4ccccc4C(=O)N3C(C)c3cccs3)ccc2[nH]1 (centres unmarked)
## Output < 100 nM

## Input Check the records and state IC50 for "O=C1COc2ccc(C(=O)c3ccccc3-c3nc(-c4ccccc4)no3)cc2N1"
## Output ≥ 10000 nM

## Input Check the records and state IC50 for COC(=O)Nc1nc2cc(C3(O)c4ccccc4C(=O)N3Cc3ccco3)ccc2[nH]1 (centres unmarked)
## Output < 100 nM

## Input Check the records and state IC50 for COC(=O)Nc1nc2cc(C3(O)c4ccccc4C(=O)N3C(C)c3sccc3Cl)ccc2[nH]1 (centres unmarked)
## Output 1000 to 10000 nM

## Input Check the records and state IC50 for COC(=O)Nc1nc2cc(C3(O)c4ccccc4C(=O)N3c3cccc(Cl)c3)ccc2[nH]1 (centres unmarked)
## Output < 100 nM

## Input Check the records and state IC50 for COc1cccc(CN2C(=O)c3ccccc3C2(O)c2ccc3c(c2)NC(=O)CO3)c1OC (centres unmarked)
## Output ≥ 10000 nM

## Input Check the records and state IC50 for COC(=O)Nc1nc2cc(C3(O)c4ccccc4C(=O)N3C(C)c3cccc(F)c3)ccc2[nH]1 (centres unmarked)
## Output 100 to 1000 nM

## Input Check the records and state IC50 for O=C1c2ccccc2C(O)(c2ccc3[nH]c(NC(=O)C(O)(C(F)(F)F)C(F)(F)F)nc3c2)N1Cc1ccccc1 (centres unmarked)
## Output 1000 to 10000 nM

## Input Check the records and state IC50 for O=C1COc2ccc(C3(O)c4ccccc4C(=O)N3Cc3ccccc3F)cc2N1 (centres unmarked)
## Output 1000 to 10000 nM

## Input Check the records and state IC50 for CCc1cccc(N2C(=O)c3ccccc3C2(O)c2ccc3[nH]c(NC(=O)OC)nc3c2)c1 (centres unmarked)
## Output < 100 nM

## Input Check the records and state IC50 for O=C1COc2ccc(C3(O)c4ccccc4C(=O)N3c3cc(F)cc(I)c3)cc2N1 (centres unmarked)
## Output 1000 to 10000 nM

## Input Check the records and state IC50 for CN(C)CCOc1cccc(N2C(=O)c3ccccc3C2(O)c2ccc3c(c2)NC(=O)CO3)c1 (centres unmarked)
## Output ≥ 10000 nM

## Input Check the records and state IC50 for COC(=O)Nc1nc2cc(C3(O)c4ccccc4C(=O)N3c3cc(F)cc(F)c3)ccc2[nH]1 (centres unmarked)
## Output 100 to 1000 nM

## Input Check the records and state IC50 for COC(=O)Nc1nc2cc(C3(O)NC(=O)c4ccccc43)ccc2[nH]1 (centres unmarked)
## Output ≥ 10000 nM

## Input Check the records and state IC50 for C=CCCOC(=O)Nc1nc2cc(C3(O)c4ccccc4C(=O)N3Cc3ccccc3)ccc2[nH]1 (centres unmarked)
## Output < 100 nM

## Input Check the records and state IC50 for O=C1COc2ccc(C3(O)c4ccccc4C(=O)N3c3cccc(O)c3)cc2N1 (centres unmarked)
## Output 1000 to 10000 nM

## Input Check the records and state IC50 for CCOC1(c2ccc3[nH]c(NC(=O)OC)nc3c2)c2ccccc2C(=O)N1Cc1ccccc1 (centres unmarked)
## Output 100 to 1000 nM
